experiment: APR_HepG2_P-H2AX_72hr: Apredica 72-hour HepG2 Assay for H2AX Phosphorylation (AID 2282916); details: imaging, actives raise or lower the signal;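 also: phospho-histone H2A.x immunostain intensity per cell marking DNA damage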
The source made the active and inactive calls. The calls were made as follows: active = hit-call score of the fitted dose curve at least 0.9, where 1 is the maximum; inactive = score below 0.9.
Write down one outcome, taken from y for active, n for inactive

compound	classification
COc1nc(C)nc(NC(=O)NS(=O)(=O)c2ccccc2Cl)n1	n
C=CCC1=C(C)[C@@H](OC(=O)[C@@H]2[C@@H](C=C(C)C)C2(C)C)CC1=O	n
CC1=C(C(=O)Nc2ccccc2)SCCO1	n
COC(=O)c1ccccc1C(=O)OC	n
CON(C)C(=O)Nc1ccc(Cl)c(Cl)c1	n

# next compound below
Task item: What was the test verdict on CCNc1nc(Cl)nc(NC(C)C)n1 ?
Reply: n

* * *

experiment: ATG_PPRE_CIS: Attagene CIS-FACTORIAL HepG2 Assay for human Peroxisome Proliferator-activated Response Element (PPRE) (AID 2282958); details: HepG2 PPRE cis-element reporter, Attagene transcription factor profiling; actives raise or lower the signal
Active and inactive are the calls of the source. The calls were made as follows: active = hit-call score of the fitted dose curve at least 0.9, where 1 is the maximum; inactive = score below 0.9.
Write down one outcome, taken from true (1) for active, false (0) for inactive

Answered cases to consult:
compound	classification
COc1ccc(C(c2ccc(OC)cc2)C(Cl)(Cl)Cl)cc1	false (0)
CCOC(=O)C(Cl)Cc1cc(-n2nc(C)n(C(F)F)c2=O)c(F)cc1Cl (stereo unspecified)	false (0)
CNC(=O)ON=CC(C)(C)SC	false (0)
CC1=C(C(=O)Nc2ccccc2)SCCO1	false (0)
COC(=O)C=C(C)OP(=O)(OC)OC	false (0)

Task item: What was the test verdict on N#Cc1cc(Br)c(O)c(Br)c1 ?
Reply: true (1)

Task item: One more compound: COc1nc(C)nc(NC(=O)NS(=O)(=O)c2ccccc2CCC(F)(F)F)n1
Reply: false (0)

Task item: One more compound: COc1cnc(OC)n2nc(NS(=O)(=O)c3c(OCC(F)F)cccc3C(F)(F)F)nc12
Reply: false (0)

* * *

assay: APR_HepG2_MicrotubuleCSK_1hr: Apredica 1-hour HepG2 Assay for Microtubule CSK Stabilty (AID 2282669); conditions: HepG2 microtubule cytoskeleton imaging, actives raise or lower the signal
Activity calls are given as the source filed them. How the source made its calls: active means hit-call score of the fitted dose curve at least 0.9, where 1 is the maximum; inactive means score below 0.9.
quantityMeasured: outcome

Check out these entries, answers already filled in.
compound	outcome
CCCCOC(=O)c1ccccc1C(=O)OCCCC	inactive
CCON=C(CC)C1=C(O)CC(c2c(C)cc(C)cc2C)CC1=O (configuration not stated)	inactive
CCCCNC(=O)n1c(NC(=O)OC)nc2ccccc21	inactive
CS/C(C)=N/OC(=O)N(C)SN(C)C(=O)O/N=C(\C)SC	inactive
O=C(O)COc1nc(Cl)c(Cl)cc1Cl	inactive
CON(C)C(=O)Nc1ccc(Cl)c(Cl)c1	inactive
COc1cnc(OC)n2nc(NS(=O)(=O)c3c(OCC(F)F)cccc3C(F)(F)F)nc12	inactive
CCCC1COC(Cn2cncn2)(c2ccc(Cl)cc2Cl)O1 (configuration not stated)	inactive

Task item: Endpoint output: outcome of COP(N)(=O)SC (configuration not stated) . Value?
Reply: inactive

Task item: One more compound: C=CCC1=C(C)[C@@H](OC(=O)[C@@H]2[C@@H](C=C(C)C)C2(C)C)CC1=O
Reply: inactive

Task item: One more compound: OC(c1ccc(Cl)cc1)(c1cncnc1)c1ccccc1Cl (configuration not stated)
Reply: inactive

Task item: One more compound: Fc1ccc(Oc2ccnc3cc(Cl)cc(Cl)c23)cc1
Reply: inactive
